# test summary: self-splicing fitness, log relative to wild type (ln ratio); higher = more splicing; Tetrahymena group I intron in knt gene, E. coli kanamycin selection, DiMSum; sequences stand for … in CUCUCU…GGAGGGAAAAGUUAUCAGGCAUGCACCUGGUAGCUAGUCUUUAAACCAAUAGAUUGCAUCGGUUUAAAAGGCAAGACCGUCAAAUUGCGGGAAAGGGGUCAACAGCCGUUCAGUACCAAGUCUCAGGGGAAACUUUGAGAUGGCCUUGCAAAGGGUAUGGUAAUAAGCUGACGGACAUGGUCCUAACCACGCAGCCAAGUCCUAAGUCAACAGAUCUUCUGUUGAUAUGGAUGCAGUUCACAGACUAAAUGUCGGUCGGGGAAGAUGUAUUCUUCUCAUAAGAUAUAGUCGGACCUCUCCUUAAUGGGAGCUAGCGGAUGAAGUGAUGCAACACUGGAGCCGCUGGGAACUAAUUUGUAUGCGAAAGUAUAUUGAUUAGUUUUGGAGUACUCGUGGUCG;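 further: selection with 25 µg/mL kanamycin versus none on LB agar overnight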
# reported conditions: 30 °C
Kindly note that classification relies on self-splicing fitness (ln) with these boundaries: LOW = under -3, MEDIUM = from -3 up to -2, HIGH = -2 and over

Would you please look over these solved cases?
| sequence text | class assignment |
| --- | --- |
| UGUGAGCAAUAUUACGUAUU | LOW |
| AGGAAGCAAUAUUACGUACA | HIGH |
| CACCAGCAAUAUUACGUAAC | MEDIUM |

# bin lookup: classify GACAAGCAAUAUUACGGUGU by its self-splicing fitness (ln) LOW

# bin lookup: classify AUUUAGCAAUAUUACGCGCG by its self-splicing fitness (ln) HIGH

# bin lookup: classify AACCAGCAAUAUUACGCCUA by its self-splicing fitness (ln) HIGH

# bin lookup: classify CCGAAGCAAUAUUACGGAAC by its self-splicing fitness (ln) MEDIUM

# bin lookup: classify GCCAAGCAAUAUUACGAGGU by its self-splicing fitness (ln) LOW

# bin lookup: classify GACUAGCAAUAUUACGACAC by its self-splicing fitness (ln) HIGH

# bin lookup: classify ACUUAGCAAUAUUACGACAA by its self-splicing fitness (ln) HIGH

# bin lookup: classify AGUGAGCAAUAUUACGGAAC by its self-splicing fitness (ln) MEDIUM

# bin lookup: classify CAAUAGCAAUAUUACGUGGU by its self-splicing fitness (ln) LOW

# bin lookup: classify AACUAGCAAUAUUACGCGAG by its self-splicing fitness (ln) HIGH

# bin lookup: classify GAGGAGCAAUAUUACGGGCG by its self-splicing fitness (ln) MEDIUM

# bin lookup: classify GCGAAGCAAUAUUACGUCCG by its self-splicing fitness (ln) HIGH

---

# test summary: self-splicing fitness, log relative to wild type (ln ratio); higher = more splicing; Tetrahymena group I intron in knt gene, E. coli kanamycin selection, DiMSum; sequences stand for … in CUCUCU…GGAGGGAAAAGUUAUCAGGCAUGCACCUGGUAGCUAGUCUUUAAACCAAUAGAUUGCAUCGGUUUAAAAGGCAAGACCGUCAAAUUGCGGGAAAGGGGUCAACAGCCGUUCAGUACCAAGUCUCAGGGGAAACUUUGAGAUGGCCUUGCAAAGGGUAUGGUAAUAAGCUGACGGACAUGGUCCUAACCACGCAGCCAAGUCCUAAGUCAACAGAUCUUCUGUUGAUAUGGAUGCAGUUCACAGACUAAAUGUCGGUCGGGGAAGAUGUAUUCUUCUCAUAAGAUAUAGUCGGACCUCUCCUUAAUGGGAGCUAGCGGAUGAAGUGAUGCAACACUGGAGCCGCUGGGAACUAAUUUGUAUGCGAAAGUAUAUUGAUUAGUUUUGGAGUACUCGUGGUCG
# reported conditions: 30 °C
// not satisfied strictly below -3 in self-splicing fitness (ln); satisfied otherwise

Would you please look over these solved cases?
| sequence text | class assignment |
| --- | --- |
| GUCAAGCAAUAUUACGGGUC | not satisfied |
| AAGUAGCAAUAUUACGCCUA | satisfied |
| UACAAGCAAUAUUACGACAU | satisfied |
| GAGGAGCAAUAUUACGGUGU | not satisfied |

Quick check: does GGUUAGCAAUAUUACGGUAG have self-splicing fitness (ln) greater than or equal to -3? satisfied

Quick check: does ACGCAGCAAUAUUACGGCAC have self-splicing fitness (ln) greater than or equal to -3? satisfied

Quick check: does AUGAAGCAAUAUUACGGCGA have self-splicing fitness (ln) greater than or equal to -3? satisfied

Quick check: does ACCCAGCAAUAUUACGCCAG have self-splicing fitness (ln) greater than or equal to -3? not satisfied

Quick check: does AUGGAGCAAUAUUACGUGAU have self-splicing fitness (ln) greater than or equal to -3? satisfied

---

# test summary: self-splicing fitness, log relative to wild type (ln ratio); higher = more splicing; Tetrahymena group I intron in knt gene, E. coli kanamycin selection, DiMSum; sequences stand for … in CUCUCU…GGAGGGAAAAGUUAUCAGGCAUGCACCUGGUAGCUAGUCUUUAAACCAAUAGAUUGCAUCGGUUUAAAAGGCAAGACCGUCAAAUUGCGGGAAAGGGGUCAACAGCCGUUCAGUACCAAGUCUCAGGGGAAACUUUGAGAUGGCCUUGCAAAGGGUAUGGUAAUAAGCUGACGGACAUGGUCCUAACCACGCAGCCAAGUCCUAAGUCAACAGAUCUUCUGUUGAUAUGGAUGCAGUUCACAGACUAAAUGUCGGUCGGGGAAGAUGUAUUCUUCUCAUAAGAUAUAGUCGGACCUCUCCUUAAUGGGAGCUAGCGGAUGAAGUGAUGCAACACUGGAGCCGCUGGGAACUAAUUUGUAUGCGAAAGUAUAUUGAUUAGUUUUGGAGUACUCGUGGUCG
# reported conditions: 37 °C
// not satisfied strictly below -2 in self-splicing fitness (ln); satisfied otherwise

| sequence text | class assignment |
| --- | --- |
| GUCGAGCAAUAUUACGUAGG | not satisfied |

Quick check: does UCCGAGCAAUAUUACGCAUA have self-splicing fitness (ln) greater than or equal to -2? not satisfied

Quick check: does AUCCAGCAAUAUUACGACUU have self-splicing fitness (ln) greater than or equal to -2? satisfied

Quick check: does AGCUAGCAAUAUUACGUGAC have self-splicing fitness (ln) greater than or equal to -2? satisfied

---

# test summary: self-splicing fitness, log relative to wild type (ln ratio); higher = more splicing; Tetrahymena group I intron in knt gene, E. coli kanamycin selection, DiMSum; sequences stand for … in CUCUCU…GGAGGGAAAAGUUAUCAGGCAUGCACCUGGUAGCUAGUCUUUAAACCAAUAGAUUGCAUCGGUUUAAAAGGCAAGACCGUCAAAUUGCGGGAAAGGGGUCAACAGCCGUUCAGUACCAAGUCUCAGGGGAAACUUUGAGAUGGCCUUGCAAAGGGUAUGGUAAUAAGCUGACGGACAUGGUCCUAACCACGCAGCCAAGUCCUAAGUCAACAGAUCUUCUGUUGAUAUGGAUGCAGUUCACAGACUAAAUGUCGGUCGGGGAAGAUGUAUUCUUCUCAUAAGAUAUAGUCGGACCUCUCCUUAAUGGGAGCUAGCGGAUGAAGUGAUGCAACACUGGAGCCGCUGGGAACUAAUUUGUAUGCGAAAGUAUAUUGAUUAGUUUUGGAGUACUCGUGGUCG
# reported conditions: 37 °C
// rule not met strictly below -2 in self-splicing fitness (ln); rule met otherwise

Would you please look over these solved cases?
| sequence text | class assignment |
| --- | --- |
| AGACAGCAAUAUUACGAGUA | rule met |
| GUACAGCAAUAUUACGAUUC | rule met |
| AUCGAGCAAUAUUACGCGGU | rule met |

Quick check: does GAGCAGCAAUAUUACGUUAA have self-splicing fitness (ln) greater than or equal to -2? rule met

Quick check: does GGUGAGCAAUAUUACGGGUC have self-splicing fitness (ln) greater than or equal to -2? rule not met

Quick check: does GCGAAGCAAUAUUACGGUAG have self-splicing fitness (ln) greater than or equal to -2? rule not met

---

# test summary: self-splicing fitness, log relative to wild type (ln ratio); higher = more splicing; Tetrahymena group I intron in knt gene, E. coli kanamycin selection, DiMSum; sequences stand for … in CUCUCU…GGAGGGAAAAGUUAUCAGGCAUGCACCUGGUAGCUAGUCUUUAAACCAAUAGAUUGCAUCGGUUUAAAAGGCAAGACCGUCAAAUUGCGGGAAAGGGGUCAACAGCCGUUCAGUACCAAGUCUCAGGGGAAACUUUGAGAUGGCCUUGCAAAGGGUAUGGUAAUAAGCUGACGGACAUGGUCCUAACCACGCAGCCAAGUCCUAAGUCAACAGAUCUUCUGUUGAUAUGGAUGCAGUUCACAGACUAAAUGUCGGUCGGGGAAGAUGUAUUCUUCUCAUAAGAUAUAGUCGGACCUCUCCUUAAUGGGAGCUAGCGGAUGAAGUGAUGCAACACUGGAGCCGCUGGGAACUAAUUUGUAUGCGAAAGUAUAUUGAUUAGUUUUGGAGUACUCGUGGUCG
# reported conditions: 37 °C
assay metric: self-splicing fitness (ln)
# answer = number (no unit)

These solved cases illustrate the format of a correct answer.
| sequence text | self-splicing fitness (ln) |
| --- | --- |
| GGGGAGCAAUAUUACGUUUG | -2.43 |
| GCAAAGCAAUAUUACGCCCU | 0.0848 |
| UGUAAGCAAUAUUACGUUGA | -1.28 |

I would be grateful if you could share the reported self-splicing fitness (ln) for CUACAGCAAUAUUACGUACC . -1.72

I would be grateful if you could share the reported self-splicing fitness (ln) for GCUUAGCAAUAUUACGGCAU . -1.61

I would be grateful if you could share the reported self-splicing fitness (ln) for CCGAAGCAAUAUUACGAUGA . -2.24

I would be grateful if you could share the reported self-splicing fitness (ln) for GAUAAGCAAUAUUACGUAAU . -0.923

I would be grateful if you could share the reported self-splicing fitness (ln) for AAAUAGCAAUAUUACGUUUG . -1.49

I would be grateful if you could share the reported self-splicing fitness (ln) for CCGAAGCAAUAUUACGUUGG . -2.16

I would be grateful if you could share the reported self-splicing fitness (ln) for GGUCAGCAAUAUUACGGGCA . -0.119

I would be grateful if you could share the reported self-splicing fitness (ln) for UGCAAGCAAUAUUACGCUAU . -1.49

I would be grateful if you could share the reported self-splicing fitness (ln) for UUUGAGCAAUAUUACGUUCG . -1.18

I would be grateful if you could share the reported self-splicing fitness (ln) for GGGUAGCAAUAUUACGUCGU . 0.73

I would be grateful if you could share the reported self-splicing fitness (ln) for UGCGAGCAAUAUUACGGUGG . -3.1

I would be grateful if you could share the reported self-splicing fitness (ln) for UCCUAGCAAUAUUACGUCAU . -3.37

I would be grateful if you could share the reported self-splicing fitness (ln) for UGCUAGCAAUAUUACGCGCG . -1.08
